Cited source: PubChem BioAssay (NCI)

Would you mind telling me the reported TGI of each entry?
# Test system: SNB-75 CNS
# Test summary: NCI tumour cell line growth inhibition, 48 h

Q: Identify the measured TGI of COC(=O)[C@H](Cc1ccccc1)NP(=O)(O)OCC1C=CC(n2cc(C)c(=O)[nH]c2=O)O1 (stereo partly drawn) for SNB-75 CNS.
Result: > 100 µM

Q: Now this one: "Nn1c(Cc2ccccc2)n[nH]c1=O"
Result: > 100 µM

Q: Consider next the compound N#Cc1nc(CCC(c2nc(C#N)c(N)o2)N2C(=O)c3ccccc3C2=O)oc1N (stereo not drawn) in the same way.
Result: > 100 µM

Q: Request: COC(=O)c1ccccc1C1CN=NC12Cc1cccc(C)c1C2=O (stereo not drawn)
Result: > 100 µM

Q: Queued: Cc1ccc(C(=O)Nc2ccc(S(=O)(=O)O)c3cc(S(=O)(=O)O)cc(S(=O)(=O)O)c23)cc1NC(=O)c1cccc(NC(=O)Nc2cccc(C(=O)Nc3cc(C(=O)Nc4ccc(S(=O)(=O)O)c5cc(S(=O)(=O)O)cc(S(=O)(=O)O)c45)ccc3C)c2)c1 (tested in a mixture with another compound)
Result: > 50 µM

Q: Query "COc1ccc(-c2c(N)[n+]([O-])c3ccccc3[n+]2[O-])cc1OC" next
Result: > 100 µM

Q: Record: "COc1ccccc1/C=C/C(=O)/C=C/c1ccccc1OC"
Result: 11.6 µM

Q: # iterate: c1ccc2nc(CCC3CCCCN3)ccc2c1 (stereo not drawn)
Result: > 100 µM
